Experiment: Solubility of benzotriazole stabilizers
Format: physicochemical
Conditions: Butyl Cellosolve Acetate, 25° C.
Source text: The benzotriazole stabilizers are classically materials with relatively low solubility in common organic solvents. This is particularly the case where the benzotriazole is substituted in the 2-phenyl ring with aralkyl groups intended to decrease stabilizer volatility during processing and use.
Quantity: Solubility in Butyl Cellosolve Acetate

Answer for every listed entry: what is its Solubility in Butyl Cellosolve Acetate? The entries follow.
1. CCC(C)(C)c1cc(-n2nc3ccccc3n2)c(O)c(C(C)(C)CC)c1 [Compound B]
2. CCC(C)(C)c1cc(-n2nc3ccc(C(C)(C)c4ccccc4)cc3n2)c(O)c(C(C)(C)CC)c1 [Example 23]
3. CC(C)(C)CC(C)(C)c1cc(-n2nc3ccccc3n2)c(O)c(C(C)(C)c2ccccc2)c1 [Compound G]
4. CC(C)(c1ccccc1)c1cc(-n2nc3ccccc3n2)c(O)c(C(C)(C)c2ccccc2)c1 [Compound F]
5. CC(C)(C)c1cc(-n2nc3ccc(C(C)(C)c4ccccc4)cc3n2)c(O)c(C(C)(C)C)c1 [Example 7]

## Result
1. 19 grams per 100 grams solvent
2. > 100 grams per 100 grams solvent
3. 19 grams per 100 grams solvent
4. 14 grams per 100 grams solvent
5. 61 grams per 100 grams solvent

====

assay: Solubility of benzotriazole stabilizers; type: physicochemical; details: methyl amyl ketone, 25° C.
Quantity: Solubility in Methyl Amyl Ketone

Known results for compounds:
>>> result("CCC(C)(C)c1cc(-n2nc3ccc(C(C)(C)c4ccccc4)cc3n2)c(O)c(C(C)(C)CC)c1 [Example 23]")
"> 100 grams per 100 grams solvent"
>>> result("CC(C)(C)c1cc(-n2nc3ccc(C(C)(C)c4ccccc4)cc3n2)c(O)c(C(C)(C)C)c1 [Example 7]")
"128 grams per 100 grams solvent"
>>> result("CC(C)(C)CC(C)(C)c1cc(-n2nc3ccccc3n2)c(O)c(C(C)(C)c2ccccc2)c1 [Compound G]")
"33 grams per 100 grams solvent"
>>> result("CCC(C)(C)c1cc(-n2nc3ccccc3n2)c(O)c(C(C)(C)CC)c1 [Compound B]")
"34 grams per 100 grams solvent"

## Task GET /values?readout=Solubility in Methyl Amyl Ketone&item= CC(C)(c1ccccc1)c1cc(-n2nc3ccccc3n2)c(O)c(C(C)(C)c2ccccc2)c1 [Compound F]
## Result 6 grams per 100 grams solvent

====

For each record, write down the corresponding Solubility in Xylene.
assay: Solubility of benzotriazole stabilizers; format: physicochemical; details: xylene, 25° C.

Known results for molecules:
>>> result("CCC(C)(C)c1cc(-n2nc3ccc(C(C)(C)c4ccccc4)cc3n2)c(O)c(C(C)(C)CC)c1 [Example 23]")
"> 100 grams per 100 grams solvent"
>>> result("CCC(C)(C)c1cc(-n2nc3ccccc3n2)c(O)c(C(C)(C)CC)c1 [Compound B]")
"70 grams per 100 grams solvent"
>>> result("CC(C)(C)CC(C)(C)c1cc(-n2nc3ccccc3n2)c(O)c(C(C)(C)c2ccccc2)c1 [Compound G]")
"82 grams per 100 grams solvent"
>>> result("CC(C)(C)c1cc(-n2nc3ccc(C(C)(C)c4ccccc4)cc3n2)c(O)c(C(C)(C)C)c1 [Example 7]")
"197 grams per 100 grams solvent"

// moving on: another record for Solubility in Xylene
## Task GET /values?readout=Solubility in Xylene&item= CC(C)(c1ccccc1)c1cc(-n2nc3ccccc3n2)c(O)c(C(C)(C)c2ccccc2)c1 [Compound F]
## Result 16 grams per 100 grams solvent

====

For each record, write down the corresponding Time (minutes) to 50% Weight Loss of Stabilizer.
test: Thermal gravimetric analysis (resistance to loss of benzotriazole stabilizers); details: isothermal at 280° C., 100 ml nitrogen/minute
Give bare numbers, in min.

>>> quantitative_result("CCC(C)c1cc(-n2nc3ccccc3n2)c(O)c(C(C)(C)C)c1 (stereo not drawn) [Stabilizer C]")
1.0
>>> quantitative_result("CCC(C)(C)c1cc(-n2nc3ccccc3n2)c(O)c(C(C)(C)CC)c1 [Compound B]")
0.9
>>> quantitative_result("CC(C)(c1ccccc1)c1cc(-n2nc3ccc(C(C)(C)c4ccccc4)cc3n2)c(O)c(C(C)(C)c2ccccc2)c1 [Example 21]")
2040

Answer for every listed entry: what is its Time (minutes) to 50% Weight Loss of Stabilizer? The entries follow.
1. CCC(C)(C)c1cc(-n2nc3ccc(C(C)(C)c4ccccc4)cc3n2)c(O)c(C(C)(C)CC)c1 [Example 23]
2. CC(C)(C)CC(C)(C)c1cc(-n2nc3ccc(C(C)(C)c4ccccc4)cc3n2)c(O)c(C(C)(C)CC(C)(C)C)c1 [Example 24]

## Result
1. 33
2. 40

====

assay: Thermal gravimetric analysis (resistance to loss of benzotriazole stabilizers); settings: scanning at 10°(C.) per minute, 100 ml nitrogen/minute
Quantity: Temperature °C. to 10% Weight Loss of Stabilizer (°C)
Answers are plain numbers, in °C.

>>> quantitative_result("CC(C)(C)CC(C)(C)c1cc(-n2nc3ccc(C(C)(C)c4ccccc4)cc3n2)c(O)c(C(C)(C)CC(C)(C)C)c1")
308
>>> quantitative_result("CC(C)(C)CC(C)(C)c1cc(-n2nc3ccccc3n2)c(O)c(C(C)(C)c2ccccc2)c1")
267
>>> quantitative_result("Cc1cc(C(C)c2ccccc2)c(O)c(-n2nc3ccccc3n2)c1 (stereo not shown)")
250
>>> quantitative_result("Cc1ccc(O)c(-n2nc3ccccc3n2)c1")
182

Answer for every listed entry: what is its Temperature °C. to 10% Weight Loss of Stabilizer? The entries follow.
1. CC(C)(C)CC(C)(C)c1cc(-n2nc3ccc(C(C)(C)c4ccccc4)cc3n2)c(O)c(C(C)(C)c2ccccc2)c1
2. CC(C)(c1ccccc1)c1cc(-n2nc3ccc(C(C)(C)c4ccccc4)cc3n2)c(O)c(C(C)(C)c2ccccc2)c1
3. CC(C)(c1ccccc1)c1cc(-n2nc3ccccc3n2)c(O)c(C(C)(C)c2ccccc2)c1
4. CCC(C)c1cc(-n2nc3ccccc3n2)c(O)c(C(C)(C)C)c1 (stereo not shown)
5. CCC(C)(C)c1cc(-n2nc3ccc(C(C)(C)c4ccccc4)cc3n2)c(O)c(C(C)(C)CC)c1
6. CCC(C)(C)c1cc(-n2nc3ccccc3n2)c(O)c(C(C)(C)CC)c1
7. CC(C)(c1ccccc1)c1cc(-n2nc3ccc(Cc4ccccc4)cc3n2)c(O)c(C(C)(C)c2ccccc2)c1

## Result
1. 340
2. 365
3. 300
4. 210
5. 285
6. 200
7. 360

Answer for every listed entry: what is its Temperature °C. to 10% Weight Loss of Stabilizer? The entries follow.
1. CC(C)(C)c1cc(-n2nc3ccc(C(C)(C)c4ccccc4)cc3n2)c(O)c(C(C)(C)C)c1
2. CC(C)(C)CC(C)(C)c1ccc(O)c(-n2nc3ccccc3n2)c1

## Result
1. 295
2. 225

====

assay: Thermal gravimetric analysis (resistance to loss of benzotriazole stabilizers); settings: isothermal at 280° C., 100 ml nitrogen/minute
Quantity: Time (minutes) to 50% Weight Loss of Stabilizer (min)
Answers are plain numbers, in min.

>>> quantitative_result("CC(C)(C)CC(C)(C)c1ccc(O)c(-n2nc3ccccc3n2)c1")
1.9

Answer for every listed entry: what is its Time (minutes) to 50% Weight Loss of Stabilizer? The entries follow.
1. CC(C)(C)c1cc(-n2nc3ccc(C(C)(C)c4ccccc4)cc3n2)c(O)c(C(C)(C)C)c1
2. CC(C)(c1ccccc1)c1cc(-n2nc3ccc(Cc4ccccc4)cc3n2)c(O)c(C(C)(C)c2ccccc2)c1
3. Cc1cc(C(C)c2ccccc2)c(O)c(-n2nc3ccccc3n2)c1 (stereo not shown)

## Result
[19, 3780, 3.0]

Numbers sourced from patent US4760148A.
